Hey, just so you know, these numbers are from ChEMBL document CHEMBL1201862.

In this section we review reported GI50 values for a set of compounds.
Test system: SF-268
PROTOCOL TEXT: NCI tumour cell line growth inhibition, 48 h
Calls of active or inactive are those of the source. No stated cut-off is given here; in the data, active = GI50 up to about 1.1 µM and inactive = higher.

See these solved cases before continuing.
# COMPOUND, GI50
data = [
    ("CC(=O)N1CCC(=O)/C(=C/c2ccccc2)C1", "20.5 µM (inactive)"),
    ("O=C(c1ccc(O)cc1)C1c2c3c(cc(O)c2C(c2ccc(O)cc2)C1c1cc(O)cc(O)c1)OC(c1ccc(O)cc1)C3c1cc2c(cc1O)OC(c1ccc(O)cc1)C2c1cc(O)cc(O)c1 (centres undefined)", "> 12.5 µM (inactive)"),
    ("COc1ccc(-n2cnn3c(=O)c4cn[nH]c4nc23)cc1", "> 10 µM (inactive)"),
]

Now examine the next entry.
Data request: What value of measured GI50 is listed for CC(C)NC(=O)OCc1c(COC(=O)NC(C)C)c(-c2cc[n+](COC(=O)Cc3ccccc3)cc2)n2c1CCC2 ?
Data returned: 55.1 µM (inactive)

* * *

This listing pairs molecules with measured GI50.
System: T47D
PROTOCOL TEXT: NCI tumour cell line growth inhibition, 48 h
The source made the active and inactive calls. Rule as the data show it: active = GI50 up to about 1.1 µM and inactive = higher.

# MOLECULE, GI50
rows = [
    ("CCCCCCCNC(P(=O)(O)O)P(=O)(O)O", "> 100 µM (inactive)"),
]

Then this molecule:
Data request: Which GI50 value belongs to c1ccc2c(CN3CCC(C4CCN(Cc5cccc6ccccc56)CC4)CC3)cccc2c1 ?
Data returned: 23.1 µM (inactive)

* * *

System: NCI-H522
PROTOCOL TEXT: NCI tumour cell line growth inhibition, 48 h
Calls of active or inactive are those of the source. No stated cut-off is given here; in the data, active = GI50 up to about 1.1 µM and inactive = higher.
The categories you may choose from are yes (1) = active, no (0) = inactive

# MOLECULE, LABEL VALUE
records = [
    ("CC(C)C(=O)/C=C/c1ccccc1", "no (0)"),
    ("CCCC(=O)Nc1cc(/C=C/C(=O)N2CC(CCl)c3c2cc(OCc2ccccc2)c2[nH]cc(C)c32)n(C)c1 (centres undefined)", "yes (1)"),
    ("CC(C)(CN1C(=O)C(Cl)=C(Cl)C1=O)CN1C(=O)C(Cl)=C(Cl)C1=O", "no (0)"),
    ("O=C1C(c2c(O)[nH]c3ccc(F)cc23)=Nc2ccccc21", "no (0)"),
    ("c1ccc2c(Cc3nnc4sc(SSc5nn6c(Cc7c[nH]c8ccccc78)nnc6s5)nn34)c[nH]c2c1", "no (0)"),
    ("Cc1nc(-n2nc(-c3ccccc3)cc2-c2ccccc2)sc1C(=O)/C=C/c1ccc(/C=C/C(=O)c2sc(-n3nc(-c4ccccc4)cc3-c3ccccc3)nc2C)cc1", "no (0)"),
    ("O=C1OC(=O)c2c1c(-c1ccccc1)nc1ccccc21", "no (0)"),
    ("CCCCn1c(N)c(-c2nc3ccccc3o2)sc1=S", "no (0)"),
]

Data request: Field: outcome | Entry: COc1ccc(C23C(=O)c4ccccc4N2O[C@H]2C(=O)N(c4ccccc4)C(=O)[C@H]23)cc1 (some centres undefined)
Data returned: no (0)

Data request: How about this molecule: Cc1cccc2c(N)c3cccc(C(=O)NCC[N+](C)(C)Cc4sccc4[N+](=O)[O-])c3nc12
Data returned: no (0)

Data request: And what about the molecule C[C@]12CCc3nn(-c4ccccc4)nc3C1CC[C@@H]1C2CC[C@]2(C)C(=O)CCC12 (some centres undefined) ?
Data returned: no (0)

Data request: Next molecule up: NNC(=O)Nc1nc2ccc(NN)cc2[nH]1
Data returned: no (0)

Data request: // query: CC1C(O)C2(Oc3cc4c(c5c3[C@@H](CC5O)[C@H]2C)CCC2Cc3nc5c(nc3C[C@@]42C)CC2CCC3C4=C[C@H]6O[C@@]7(O[C@@](C)(CO)C[C@@H]7O)C(C)[C@@]6(O)[C@]4(C)[C@@H](O)CC3[C@]2(C)C5)OC1(C)C (some centres undefined)
Data returned: yes (1)

Data request: Can you check C=CCn1c(=O)c(-c2ccccc2)c(O)c2ccccc21 next?
Data returned: no (0)

Data request: Queued: CCN(CC)C1=Nc2ccccc2-n2ccnc2C1
Data returned: no (0)

Data request: Okay, and CC(C1=CC=C2[C@@H]3CCC4CC(N(C)C)CC[C@]4(C)C3CC[C@]12C)N(C)C=O (some centres undefined) ?
Data returned: no (0)

Data request: Try this molecule too: CCCc1ccc(/N=C\c2cc(OC)c(OC)c(OC)c2)cc1
Data returned: no (0)

Data request: Would you kindly repeat that for CC(O)CNC1=CC(=O)C(=O)c2ccccc21 (centres undefined) ?
Data returned: no (0)

Data request: Record: CCOC(=O)[C@H]1Nc2c(cccc2[N+](=O)[O-])C2c3ccccc3CC21 (some centres undefined)
Data returned: no (0)

* * *

GI50 reference
Tested on: MCF7
PROTOCOL TEXT: NCI tumour cell line growth inhibition, 48 h
The source made the active and inactive calls. Rule as the data show it: active = GI50 up to about 1.1 µM and inactive = higher.

Consider the reported GI50 for these compounds:
# COMPOUND, GI50
measured = [
    ("N#C/C(C(=O)Nc1ccccc1)=C(/N)N1CCCCC1", "> 100 µM (inactive)"),
    ("Cc1sc(N)c(S(=O)(=O)c2ccccc2)c1C", "> 100 µM (inactive)"),
    ("O=C(N/N=C/c1ccc(Cl)cc1)c1c(Cl)c(Cl)c(Cl)c(Cl)c1-c1nc2ccccc2[nH]1", "16.2 µM (inactive)"),
    ("O=C(O)C(O)C(O)C(O)C(O)CO.[Ba+2] (configuration not stated)", "> 100 µM (inactive)"),
    ("Cc1cc(S(=O)(=O)N/C(=N/N)NCCc2ccccc2)c(S)cc1Cl", "32.4 µM (inactive)"),
    ("O=c1cc(N2CCCC2)[nH]c(=O)n1-c1cccc(C(F)(F)F)c1", "> 100 µM (inactive)"),
]

Data request: What reported GI50 corresponds to CSC(SC)(C(=O)O)c1cc(-c2c(Cl)cccc2Cl)no1 on MCF7?
Data returned: 70.1 µM (inactive)

Data request: Proceed to Nc1nc(Nc2ccc(Cl)cc2)sc1C(=O)c1c[nH]c2ccccc12
Data returned: 13.8 µM (inactive)

Data request: Then this compound: CC[S+]([O-])C(=O)N(O)c1ccc(Cl)cc1 (configuration not stated)
Data returned: 20.4 µM (inactive)

Data request: For CC(C)NC(=O)OCc1c(COC(=O)NC(C)C)c(-c2cc[n+](COC(=O)Cc3ccccc3)cc2)n2c1CCC2 then?
Data returned: 67.5 µM (inactive)

Data request: Now consider Cc1ccc(-c2c(C#N)c(-c3ccc([N+](=O)[O-])cc3)c(C#N)c(=O)n2NS(=O)(=O)c2ccccc2)cc1 .
Data returned: 19.2 µM (inactive)

Data request: # iterate: CC(C)=C1C(=O)C[C@@]2(C)C[C@H]3OC3(C)CC/C=C(/C)CCC12 (some centres not stated)
Data returned: 71.9 µM (inactive)

Data request: Now consider N=C1OC(CN2CCN(c3ccccc3)CC2)CN1C(=S)Nc1ccccc1 (configuration not stated) and answer again.
Data returned: 37.2 µM (inactive)

Data request: Would you kindly repeat that for O=C(NNc1nc(-c2ccccc2)cs1)C(F)(F)F ?
Data returned: > 100 µM (inactive)

Data request: What about CCN(CC)c1ccc(/C=C/C=C2C(=O)NC(=S)NC2=O)cc1 ?
Data returned: 27 µM (inactive)

Data request: Let us now turn to Oc1ccc(Cn2c(-c3ccc(O)c(O)c3)nc3ccccc32)cc1O
Data returned: 30.1 µM (inactive)

Data request: Entry to check: COC(=O)c1ccc2c(c1)CCN2C(=O)c1cc2c(cc1Br)OCO2
Data returned: 0.251 µM (active)

Data request: Okay, and O=C(CC(C(=O)c1ccsc1)c1ccsc1)c1ccsc1 (configuration not stated) ?
Data returned: 70.6 µM (inactive)

Data request: For COC(=O)/C=C(\C(=O)OC)c1cc(C)c2cc(C(C)C)ccc(C)c1-2 then?
Data returned: 24.9 µM (inactive)

Data request: Next compound: C=C1C(=O)C[C@@]23CCC[C@@]12CC(O)C3 (some centres not stated)
Data returned: 16.7 µM (inactive)

Data request: Similarly, CN(C)CCCNc1ccc2nnn3c4ccc(O)cc4c(=O)c1c23 ?
Data returned: 5.7 µM (inactive)

Data request: Repeat with CN(C)CCCCN1CCc2c(n(C)c3ccccc23)C1=O
Data returned: 36.6 µM (inactive)

* * *

Items are presented alongside their recorded GI50.
Test system: SF-539
PROTOCOL TEXT: NCI tumour cell line growth inhibition, 48 h
Active and inactive are the calls of the source. Cut-off read from the data, not from the text of the source: active = GI50 up to about 1.1 µM and inactive = higher.

# COMPOUND, GI50
measured = [
    ("COC(=O)C(=Cc1cc(OC)c(OC)c(OC)c1-c1cc2c(cc1C1(C)OCCS1)OCO2)C(=O)OC (stereo unspecified)", "40.6 µM (inactive)"),
]

--- query ---
Data request: Provide the documented GI50 with SF-539 as the system for CC(C)=CCC/C(C)=C/CC/C(C)=C/C1CCC(=O)C1(C)C (stereo unspecified)
Data returned: 19.5 µM (inactive)
